system: SR leukemia; experiment: NCI-60 one-dose screen, 48 h; details: 10 µM unless noted
This is part of a sample that, as a whole, favours compounds with a hit. Of some 83,000 tested, about 20% had one in any assay. Calls of active or inactive are those of the source. The calls were made as follows: active = growth percent below 10; inactive = the rest.
Labels: YES for active, NO for inactive

{"COMPOUND": "N#CSCC1CC(O)(c2ccccc2)C(c2ccccc2)C(c2ccc(Cl)cc2)O1 (centres undefined)", "LABEL_CLASS": "YES"}
{"COMPOUND": "C=C(CN1CCc2c([nH]c3ccccc23)C1)c1ccc(C(=O)Nc2ccon2)cc1", "LABEL_CLASS": "NO"}
{"COMPOUND": "CCc1nn2c(-c3ccc(Cl)cc3C)c(-c3cc(OC)c(OC)c(OC)c3)nc2s1", "LABEL_CLASS": "NO"}
{"COMPOUND": "C[C@]12CCC(=O)C=C1CC[C@H]1[C@@H]3C[C@@H](O)[C@](O)(C(=O)CO)[C@@]3(C)C[C@H](O)[C@@]12F", "LABEL_CLASS": "NO"}
{"COMPOUND": "CC[C@@H](C)/C=C(C)/C=C/C(=O)c1c(O)c(-c2ccc(O)cc2)cn(OC2CC(=O)CCC(C)OC(=O)CC2O)c1=O (some centres undefined)", "LABEL_CLASS": "YES"}
{"COMPOUND": "COc1cc(/C=C\\C(C)=N\\Nc2ccccc2)ccc1O", "LABEL_CLASS": "NO"}
{"COMPOUND": "COc1ccc(-c2cnc(SCC(=O)Nc3ccc(-c4nc5ccccc5s4)cc3)n2-c2ccc(OC)cc2)cc1", "LABEL_CLASS": "NO"}
{"COMPOUND": "Cn1cnc([N+](=O)[O-])c1Sc1nc(N)nc2nc[nH]c12", "LABEL_CLASS": "NO"}
{"COMPOUND": "COc1cc(/C=C2\\CN(S(=O)(=O)c3ccc(C)cc3)C/C(=C\\c3cc(CN4CCOCC4)c(O)c(OC)c3)C2=O)cc(CN2CCOCC2)c1O", "LABEL_CLASS": "YES"}
{"COMPOUND": "COc1cc(/C=C/C(=O)c2c(C)n([O-])c3ccc(Cl)cc3[n+]2=O)cc(OC)c1OC", "LABEL_CLASS": "NO"}
{"COMPOUND": "CCCCc1n(Cc2ccc3ccccc3c2)cc[n+]1Cc1ccc2ccccc2c1", "LABEL_CLASS": "YES"}
{"COMPOUND": "COc1ccc(-c2ccc(O)c(C(=O)/C=C/c3cc(OC)c(OC)c(OC)c3)c2)cc1", "LABEL_CLASS": "NO"}
{"COMPOUND": "COc1cc(C2=NN(C=O)C(c3cccc(Nc4ccnc5cc(Cl)ccc45)c3)C2)cc(OC)c1OC (centres undefined)", "LABEL_CLASS": "YES"}
{"COMPOUND": "COc1ccc([N+](=O)[O-])c(S(=O)(=O)c2ccc(Cl)cc2)n1", "LABEL_CLASS": "YES"}
{"COMPOUND": "COC(=O)N/N=C/c1coc2ccc(Cl)cc2c1=O", "LABEL_CLASS": "NO"}
{"COMPOUND": "O=C(c1ccc(N2CCOCC2)cc1[N+](=O)[O-])N1CCOCC1", "LABEL_CLASS": "NO"}
{"COMPOUND": "CC1Cc2ccccc2N1C(=O)c1ccc(C(=O)c2ccccc2)cc1 (centres undefined)", "LABEL_CLASS": "NO"}
{"COMPOUND": "c1ccc(-c2nc(Nc3nccnn3)c3ccccc3n2)cc1", "LABEL_CLASS": "NO"}
{"COMPOUND": "CC(=O)O[C@H]1CC[C@@]2(C)C(=CC[C@@H]3[C@@H]2CC[C@]2(C)C(c4cccnc4)=CC[C@@H]32)C1", "LABEL_CLASS": "NO"}

---

Tested on: UO-31 renal
Experiment: NCI-60 one-dose screen, 48 h
Settings: 10 µM unless noted
Description: Growth inhibition of the UO-31 human tumor cell line is measured as a screen for anti-cancer activity. Cells are grown in 96 well plates and exposed to the test compound for 48 hours. Compounds are tested at a single concentration, which is 10^-5 M for most compounds. The reported endpoint is percent growth (GI% or GIPRCNT), where numbers from 0 - 100% represent growth inhibition, and numbers from -100% - 0 represent cell death. For example, a value of 40 represents 60% growth inhibition. […]
About 83,000 compounds went through this panel and 20% of them were active in at least one assay; those are over-represented in the sample as a whole. Calls of active or inactive are those of the source. Rule for the calls: active = growth percent below 10; inactive = the rest.
Labels: active, inactive

{"COMPOUND": "CC(=O)c1nn(-c2ccccc2)c(=Nc2ccccc2)cc1C", "LABEL_CLASS": "inactive"}
{"COMPOUND": "CC[C@@H](C)/C=C(C)/C=C/C(=O)c1c(O)c(-c2ccc(O)cc2)cn(OC2CC(=O)CCC(C)OC(=O)CC2O)c1=O (stereo partly specified)", "LABEL_CLASS": "active"}
{"COMPOUND": "Fc1ccccc1C1c2ccccc2-c2nccn21 (stereo unspecified)", "LABEL_CLASS": "inactive"}
{"COMPOUND": "Cc1cc2c(cc1C)[n+](Cc1ccc3ccccc3n1)cn2Cc1ccc2ccccc2n1", "LABEL_CLASS": "inactive"}
{"COMPOUND": "O=C(O)CNC(=O)C1(N2C(=O)c3ccccc3C2=O)CCCC1", "LABEL_CLASS": "inactive"}
{"COMPOUND": "O=C(COc1ccc(/C=C2\\Oc3ccc4ccccc4c3C2=O)cc1)c1ccc(Cl)cc1", "LABEL_CLASS": "active"}
{"COMPOUND": "COc1ccc(C2CC(c3ccc(Nc4ccnc5cc(Cl)ccc45)cc3)=NN2C(C)=O)cc1 (stereo unspecified)", "LABEL_CLASS": "inactive"}
{"COMPOUND": "COc1cnc2c(c1)C(=O)c1c-2n(CCCN2CCOCC2)c(=O)c2cc(F)ccc12", "LABEL_CLASS": "active"}
{"COMPOUND": "COc1cc(C2CC(C3C(=O)N(C)C(=O)N(C)C3=O)=NN2C=O)cc(OC)c1OC (stereo unspecified)", "LABEL_CLASS": "inactive"}
{"COMPOUND": "COc1ccc(C(=O)COc2cccc(/C=C3\\CSc4ccc(Cl)cc4C3=O)c2)cc1", "LABEL_CLASS": "inactive"}
{"COMPOUND": "COc1ccc(C2=NN(C(C)=O)C(c3cccc(Nc4ccnc5cc(Cl)ccc45)c3)C2)cc1 (stereo unspecified)", "LABEL_CLASS": "inactive"}
{"COMPOUND": "O=Cc1ncc(-c2ccc(C(F)(F)F)cc2)c(NC2CCCCCC2)n1", "LABEL_CLASS": "active"}
{"COMPOUND": "Oc1ccccc1/C=N/N1CCCCCC1", "LABEL_CLASS": "inactive"}
{"COMPOUND": "CC(=O)N1N=C(c2ccc(Cl)cc2)CC1c1c(C)nn(-c2ccccc2)c1N(C)Cc1ccccc1 (stereo unspecified)", "LABEL_CLASS": "inactive"}
{"COMPOUND": "COc1cc(-c2nc3nc4sc(C)c(C)c4c(=O)n3[nH]2)cc(OC)c1OC", "LABEL_CLASS": "inactive"}
{"COMPOUND": "CCOc1cc(CCNS(=O)(=O)c2ccc(C)cc2)c(C(C)=O)cc1OCC", "LABEL_CLASS": "active"}
{"COMPOUND": "Nc1ccccc1-c1ccn[nH]1", "LABEL_CLASS": "inactive"}
{"COMPOUND": "CC(=O)Nc1cc2c3c(cccc3c1)-c1ccccc1-2", "LABEL_CLASS": "inactive"}
{"COMPOUND": "C/C(=C\\CCc1ccsc1)CC/C=C(\\C)CCCN1CCSCC1", "LABEL_CLASS": "inactive"}
{"COMPOUND": "C=C1CCC2C3(C)COC(c4ccccc4)OC3CCC2(C)C1C/C=C1/C(=O)OCC1OC(C)=O (stereo unspecified)", "LABEL_CLASS": "inactive"}
{"COMPOUND": "CC(NNC(=S)N1CCCCCC1)c1ccc2ccccc2n1 (stereo unspecified)", "LABEL_CLASS": "active"}

---

test system: HOP-92 NSCLC; assay: NCI-60 one-dose screen, 48 h; conditions: 10 µM unless noted
This is part of a sample that, as a whole, favours compounds with a hit. Of some 83,000 tested, about 20% had one in any assay. The source made the active and inactive calls. Rule for the calls: active = growth percent below 10; inactive = the rest.
Labels: active, inactive

{"MOLECULE": "C=CCNC(=O)/C(=C/c1cccc([N+](=O)[O-])c1)NC(=O)c1ccccc1", "LABEL_CLASS": "inactive"}
{"MOLECULE": "FC(F)(F)c1ccc(-c2cnc(-c3nn[nH]n3)nc2NC2CCCCCC2)cc1", "LABEL_CLASS": "active"}
{"MOLECULE": "COc1ccc(C2CC(c3ccc(Nc4ccnc5cc(Cl)ccc45)cc3)=NN2C(C)=O)cc1 (configuration not stated)", "LABEL_CLASS": "inactive"}
{"MOLECULE": "NS(=O)(=O)c1cc(C2(O)NC(=O)c3ccccc32)ccc1Cl (configuration not stated)", "LABEL_CLASS": "inactive"}
{"MOLECULE": "O=C(O)C1CCN(S(=O)(=O)c2ccc(-c3ccccc3)cc2)CC1", "LABEL_CLASS": "inactive"}
{"MOLECULE": "CC(=O)OCC(=O)[C@@]1(O)CC[C@H]2[C@@H]3CCC4=CC(=O)CC[C@]4(C)[C@@]3(F)[C@@H](O)C[C@@]21C", "LABEL_CLASS": "inactive"}
{"MOLECULE": "COc1cccc(-c2nc(-c3ccc(N)cc3)co2)c1", "LABEL_CLASS": "inactive"}
{"MOLECULE": "CC(C)Cn1cnc2c(NCn3nc(-c4cc(Cl)cc(Cl)c4Cl)n(/N=C/c4ccc(Cl)cc4)c3=S)nc3ccccc3c21", "LABEL_CLASS": "inactive"}
{"MOLECULE": "NC(=N\\N=C/Cc1ccccc1)/C(N)=N\\N=C\\Cc1ccccc1", "LABEL_CLASS": "inactive"}
{"MOLECULE": "COc1ccc(C(=O)COc2cccc(/C=C3\\CSc4ccc(Cl)cc4C3=O)c2)cc1", "LABEL_CLASS": "inactive"}
{"MOLECULE": "COc1cc(/C=N/OC(=O)Nc2ccccc2)cc(OC)c1OC", "LABEL_CLASS": "inactive"}
{"MOLECULE": "COc1ccc(CNC(=O)c2c(C)n([O-])c3cc(F)c(F)cc3[n+]2=O)cc1", "LABEL_CLASS": "inactive"}
{"MOLECULE": "COc1ccc(C(=O)/C=C/c2cccc(Nc3ccnc4cc(Cl)ccc34)c2)cc1", "LABEL_CLASS": "inactive"}
{"MOLECULE": "CSc1nc(Nc2ccc(S(=O)(=O)Nc3ccon3)cc2)c(C#N)c(-c2ccc(Cl)cc2)n1", "LABEL_CLASS": "inactive"}
{"MOLECULE": "COc1cnc2c(c1)C(=O)c1c-2n(CCCN2CCC(O)CC2)c(=O)c2cc(F)ccc12", "LABEL_CLASS": "active"}
{"MOLECULE": "Nc1ccccc1C#Cc1ccccc1C#Cc1ccc(OCCCCCCOc2ccc(C#Cc3ccccc3C#Cc3ccccc3N)cc2)cc1", "LABEL_CLASS": "inactive"}
{"MOLECULE": "CCN1CC2=C(Nc3nc(SC)[nH]c(=O)c3C2c2cc(OC)c(OC)c(OC)c2)/C(=C/c2cc(OC)c(OC)c(OC)c2)C1 (configuration not stated)", "LABEL_CLASS": "inactive"}
{"MOLECULE": "CC(=O)Nc1cc2c3c(cccc3c1)-c1ccccc1-2", "LABEL_CLASS": "inactive"}
{"MOLECULE": "COP(=O)(OC)C(c1ccc(O)cc1)(c1ccc(O)cc1)c1ccc(O)cc1", "LABEL_CLASS": "inactive"}
{"MOLECULE": "COc1cc(/C=C/C(=O)c2c(C)n([O-])c3ccc(Cl)cc3[n+]2=O)cc(OC)c1OC", "LABEL_CLASS": "inactive"}
{"MOLECULE": "COc1ccc(-c2nnc3c4[nH]cnc4ncn23)c(OC)c1", "LABEL_CLASS": "inactive"}
{"MOLECULE": "CN1CCN(CCCOc2ccc3ncnc(Nc4ccc(OCc5cccc(F)c5)c(Cl)c4)c3c2)CC1", "LABEL_CLASS": "inactive"}
{"MOLECULE": "CCOC(=O)CCN(c1c(Cl)ssc1=O)C(C)C", "LABEL_CLASS": "inactive"}
{"MOLECULE": "CCOC(=O)CCC(=O)O[C@H]1[C@H](O[C@@H]2[C@@H](C)[C@H](O[C@H]3C[C@@](C)(OC)[C@@H](O)[C@H](C)O3)[C@@H](C)C(=O)O[C@H](CC)[C@@](C)(O)[C@H](O)[C@@H](C)C(=O)[C@H](C)C[C@@]2(C)O)O[C@H](C)C[C@@H]1N(C)C", "LABEL_CLASS": "inactive"}
{"MOLECULE": "Cc1ccc(C2=NNC(c3sc(Cl)nc3Cl)C2)cc1 (configuration not stated)", "LABEL_CLASS": "inactive"}
{"MOLECULE": "C[C@]12CCC(=O)C=C1CCC1C2[C@@H](O)C[C@@]2(C)C1CC[C@]2(O)C(=O)COC(=O)CCC(=O)O (some centres not stated)", "LABEL_CLASS": "inactive"}
{"MOLECULE": "CCSc1nc(Nc2ccc(S(=O)(=O)Nc3ccon3)cc2)c(C#N)c(-c2cccc(Br)c2)n1", "LABEL_CLASS": "inactive"}
{"MOLECULE": "C=CCN(/C=C/CN(CC=C)CC=C)CC=C", "LABEL_CLASS": "inactive"}
{"MOLECULE": "O=Cc1ccccc1C(=O)O", "LABEL_CLASS": "inactive"}
{"MOLECULE": "COc1ccc(-c2ccc(O)c(C(=O)/C=C/c3cc(OC)c(OC)c(OC)c3)c2)cc1", "LABEL_CLASS": "inactive"}
{"MOLECULE": "Cc1ccc2c(c1)C(=O)/C(=C\\Nc1ccc(C(N)=O)cc1)C(O)O2 (configuration not stated)", "LABEL_CLASS": "active"}
{"MOLECULE": "c1ccc(-c2n(Cc3ccc4ccccc4c3)cc[n+]2Cc2ccc3ccccc3c2)cc1", "LABEL_CLASS": "active"}
{"MOLECULE": "O=C(Oc1cccc2ccccc12)c1ccccc1C(=O)c1ccccc1", "LABEL_CLASS": "inactive"}
{"MOLECULE": "O=C1c2cccc(NCCN=Cc3ccccc3O)c2C(=O)c2c(NCCN=Cc3ccccc3O)cccc21", "LABEL_CLASS": "active"}
{"MOLECULE": "C[C@@H]1CN(c2nc3c(cc2F)c(=O)c(C(=O)O)cn3C(C)(C)C)C[C@H](C)N1", "LABEL_CLASS": "inactive"}
{"MOLECULE": "CCCCN1c2nc3ccccc3cc2Sc2cc3ccccc3nc21", "LABEL_CLASS": "inactive"}
{"MOLECULE": "COc1cccc2c1C(=O)c1c(O)c3c(c(O)c1C2=O)C[C@@](O)(C(C)=O)C[C@@H]3O[C@H]1C[C@H](N)[C@H](O)[C@H](C)O1", "LABEL_CLASS": "active"}
